assay: chemical genetic growth profiling, strain panel (AID 1159580);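 also: tested at 20 µM; growth read once vehicle control cultures reached saturation at 30 °C; 1 = growth at the plate median or of vehicle wells; lower values mean less growth of the strain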
experimentalParameters: S. cerevisiae deletion strains, growth OD, locus YER015W, strain faa2, active compounds read low
The campaign covered roughly 5,500 compounds. About 2,000 (36%) were called active. Roughly 18% stayed inconclusive and do not appear here. Some of the results follow.
propertyName: normalized growth
# answer = number (no unit)

Data request: # get_value(readout='normalized growth', item= C=C(C)[C@H]1Cc2c(ccc3c2O[C@@H]2COc4cc(OC)c(OC)cc4[C@@H]2C3=O)O1 )
Data returned: 0.982

Data request: Consider the compound shown here: CC(=O)O[C@H]1CC[C@]2(C)C3CC[C@@]4(C)C(CC5O[C@@]6(CCC(C)CO6)[C@@H](C)C54)C3CC[C@@H]2C1 (some centres undefined) What is its recorded normalized growth?
Data returned: 1.01

Data request: Dear colleague, I am looking for the recorded normalized growth of the following compound: CC(=O)OC1CCC2(C)C3CC(=O)C4(C)C(CC5OC6(CCC(C)CO6)[C@@H](C)C54)C3CC[C@H]2C1 (some centres undefined)
Data returned: 0.988

Data request: Name the recorded normalized growth for C[C@]12CCC3C(CC[C@H]4C[C@H](OS(=O)(=O)O)CC[C@]34C)C1CCC2=O (some centres undefined) .
Data returned: 1.05

Data request: Entry under review: CCCCc1nc(Cl)c(CO)n1Cc1ccc(-c2ccccc2-c2nn[nH]n2)cc1 . Reported normalized growth?
Data returned: 0.996

Data request: Query (compound): CC(=O)O[C@H]1CC[C@]2(C)C3CC(=O)[C@]4(C)C(C(C)=O)=CCC4C3CC[C@H]2C1 (some centres undefined) ; field requested: normalized growth
Data returned: 1

Data request: Name the reported normalized growth value associated with the compound O=C(CCBr)N1CCN(C(=O)CCBr)CC1
Data returned: 1.02

Data request: Any idea what normalized growth was measured for O=C(O)c1cc(=O)c2c(Cl)cc(Cl)cc2[nH]1 ?
Data returned: 1.02

Data request: Look up normalized growth: CC(=O)O[C@@H]1CC[C@]2(C)C3CC[C@]4(C)C(=O)CCC4C3CC[C@H]2C1 (some centres undefined)
Data returned: 0.996
